Consider the following compounds; for each one, report its inhibition.
target: Insulin-like growth factor 1 receptor (Homo sapiens) (UniProt P08069); test: Inhibition of IGF1R at 10 uM
Sequence (P08069 31-736 limits assumed): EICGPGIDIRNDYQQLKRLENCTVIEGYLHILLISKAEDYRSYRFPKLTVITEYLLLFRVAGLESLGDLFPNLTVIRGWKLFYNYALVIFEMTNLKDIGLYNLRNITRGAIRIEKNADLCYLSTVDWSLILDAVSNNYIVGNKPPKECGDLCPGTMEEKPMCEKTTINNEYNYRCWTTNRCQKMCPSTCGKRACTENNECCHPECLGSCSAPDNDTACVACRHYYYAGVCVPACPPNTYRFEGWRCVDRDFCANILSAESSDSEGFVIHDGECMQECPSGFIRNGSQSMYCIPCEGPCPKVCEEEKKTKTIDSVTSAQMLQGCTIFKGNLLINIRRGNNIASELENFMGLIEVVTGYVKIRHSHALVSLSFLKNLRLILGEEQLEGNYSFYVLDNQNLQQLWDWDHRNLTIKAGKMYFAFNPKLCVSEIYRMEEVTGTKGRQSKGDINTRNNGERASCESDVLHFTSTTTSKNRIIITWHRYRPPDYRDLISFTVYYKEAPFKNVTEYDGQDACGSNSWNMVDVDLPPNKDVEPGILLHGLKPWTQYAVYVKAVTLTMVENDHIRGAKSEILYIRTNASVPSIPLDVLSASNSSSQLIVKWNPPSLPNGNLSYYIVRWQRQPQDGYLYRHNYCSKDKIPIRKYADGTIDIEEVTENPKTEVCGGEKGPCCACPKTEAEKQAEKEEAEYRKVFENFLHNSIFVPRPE
Sequence (P08069 741-1367 limits assumed): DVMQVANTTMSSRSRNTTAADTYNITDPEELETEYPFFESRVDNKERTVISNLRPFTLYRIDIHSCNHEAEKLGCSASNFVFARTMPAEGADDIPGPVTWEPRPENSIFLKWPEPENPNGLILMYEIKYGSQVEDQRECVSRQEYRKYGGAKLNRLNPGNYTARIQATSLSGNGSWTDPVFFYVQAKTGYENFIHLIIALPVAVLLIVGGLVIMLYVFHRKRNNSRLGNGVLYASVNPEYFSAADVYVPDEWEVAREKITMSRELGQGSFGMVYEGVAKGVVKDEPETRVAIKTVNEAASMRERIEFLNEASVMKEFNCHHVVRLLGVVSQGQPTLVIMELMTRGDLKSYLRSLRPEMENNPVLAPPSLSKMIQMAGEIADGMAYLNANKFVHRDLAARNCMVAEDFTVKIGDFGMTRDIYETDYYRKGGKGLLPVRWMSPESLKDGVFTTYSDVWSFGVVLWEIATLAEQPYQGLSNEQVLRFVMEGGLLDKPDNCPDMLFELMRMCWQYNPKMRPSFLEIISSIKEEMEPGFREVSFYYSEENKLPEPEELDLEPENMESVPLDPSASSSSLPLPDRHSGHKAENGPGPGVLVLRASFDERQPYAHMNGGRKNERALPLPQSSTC
Give bare numbers, in %.

Please review the entries below; each comes with its answer.
| CHEM SMILES | QUANTITY KIND | VALUE REPORTED |
| --- | --- | --- |
| C=CC(=O)Oc1cccc(-c2nc(N3CCOCC3)c3cc4ncccc4n3n2)c1 | inhibition | 41.1 |
| CCCC(CCC)C(=O)Oc1cccc(-c2nc(N3CCOCC3)c3cc4ncccc4n3n2)c1 | inhibition | 32.7 |
| N#C/C(=C\c1ccc(O)c(O)c1)C(=O)c1ccc(O)c(O)c1 | inhibition | 82.2 |
| CCCC(=O)Oc1cccc(-c2nc(N3CCOCC3)c3cc4ncccc4n3n2)c1 | inhibition | 15.6 |
| Oc1cccc(-c2nc(N3CCOCC3)c3cc4ncccc4n3n2)c1 | inhibition | 35.2 |

Give inhibition for each listed item.
1. O=C(Oc1cccc(-c2nc(N3CCOCC3)c3cc4ncccc4n3n2)c1)c1ccncc1
2. CCC(=O)Oc1cccc(-c2nc(N3CCOCC3)c3cc4ncccc4n3n2)c1
3. O=C(Oc1cccc(-c2nc(N3CCOCC3)c3cc4ncccc4n3n2)c1)c1ccco1
4. CC(=O)Oc1cccc(-c2nc(N3CCOCC3)c3cc4ncccc4n3n2)c1

1: 39.8; 2: 23.7; 3: 29.2; 4: 33.4

meta.source: ChEMBL document CHEMBL1933031
